Below: a set of entries, each annotated with reported Rm.
assayInfo: Lipophilic-hydrophilic balance, Rm of the compound by partition chromatography
Format: physicochemical
resultType: Rm

{"columns": ["smilesText", "resultType", "resultValue"],
 "data": [
  ["C[n+]1ccc(Nc2ccc(NC(=O)/C=C/c3ccc(/C=C/C(=O)Nc4ccc(Nc5cc[n+](C)cc5)cc4)cc3)cc2)cc1.Cc1ccc(S(=O)(=O)[O-])cc1.Cc1ccc(S(=O)(=O)[O-])cc1", "Rm", -0.7],
  ["CCC[n+]1cccc2cc(NC(=O)c3ccc(C(=O)Nc4ccc5c(ccc[n+]5CCC)c4)c(N)c3)ccc21.Cc1ccc(S(=O)(=O)[O-])cc1.Cc1ccc(S(=O)(=O)[O-])cc1", "Rm", 0.25],
  ["C[n+]1ccc(Nc2ccc(/C=C/c3ccc(Nc4cc[n+](C)c5ccccc45)cc3)cc2)cc1.[Br-].[Br-]", "Rm", 0.61],
  ["CCCC[n+]1cccc2cc(NC(=O)c3ccc(-c4ccc(-c5ccc(-c6ccc(C(=O)Nc7ccc8c(ccc[n+]8CCCC)c7)cc6)cc5)cc4)cc3)ccc21.Cc1ccc(S(=O)(=O)[O-])cc1.Cc1ccc(S(=O)(=O)[O-])cc1", "Rm", 0.74],
  ["CCCCC[n+]1cccc2cc(NC(=O)COc3ccc(C(=O)Nc4ccc5c(ccc[n+]5CCCCC)c4)cc3)ccc21.Cc1ccc(S(=O)(=O)[O-])cc1.Cc1ccc(S(=O)(=O)[O-])cc1", "Rm", 0.78],
  ["C[n+]1ccc(Nc2ccc(NC(=O)CCCCCC(=O)Nc3ccc(Nc4cc[n+](C)cc4)cc3)cc2)cc1.[Br-].[Br-]", "Rm", 0.49],
  ["C[n+]1cccc(NC(=O)c2ccc(NC(=O)c3ccc(C(=O)Nc4ccc(C(=O)Nc5ccc[n+](C)c5)cc4)cc3)cc2)c1.[I-].[I-]", "Rm", -0.12],
  ["CCCC[n+]1cccc(NC(=O)c2ccc(NC(=O)c3ccc(C(=O)Nc4ccc5c(ccc[n+]5CCCC)c4)cc3)cc2)c1.Cc1ccc(S(=O)(=O)[O-])cc1.Cc1ccc(S(=O)(=O)[O-])cc1", "Rm", 0.85],
  ["C[n+]1cccc2cc(NC(=O)c3ccc(C(=O)Nc4ccc5c(ccc[n+]5C)c4)cc3)ccc21.Cc1ccc(S(=O)(=O)[O-])cc1.Cc1ccc(S(=O)(=O)[O-])cc1", "Rm", -0.21],
  ["CCCC[n+]1ccc(Nc2ccc(NC(=O)c3ccc(Nc4cc[n+](CCCC)c5ccccc45)cc3)cc2)cc1.[Br-].[Br-]", "Rm", 1.14],
  ["C[n+]1ccc(Nc2ccc(NC(=O)c3ccc(Nc4cc[n+](C)c5cc(N)ccc45)cc3N)cc2)cc1.[Br-].[Br-]", "Rm", -0.12],
  ["CCC[n+]1cccc(NC(=O)c2ccc(NC(=O)c3ccc(C(=O)Nc4ccc(C(=O)Nc5ccc[n+](CCC)c5)c(OC)c4)cc3)cc2OC)c1.Cc1ccc(S(=O)(=O)[O-])cc1.Cc1ccc(S(=O)(=O)[O-])cc1", "Rm", 0.7],
  ["C[n+]1cc(-c2ccc(NC(=O)c3ccc(C(=O)Nc4ccc(-c5c[n+](C)c(N)nc5N)cc4)cc3)cc2)c(N)nc1N.Cc1ccc(S(=O)(=O)[O-])cc1.Cc1ccc(S(=O)(=O)[O-])cc1", "Rm", -0.42],
  ["CCC[n+]1cc(-c2ccc(NC(=O)c3ccc(Nc4cc[n+](CCC)c5ccccc45)cc3)cc2)c(N)nc1N.[I-].[I-]", "Rm", 0.68],
  ["CC[n+]1cccc2cc(NC(=O)c3ccc(NC(=O)c4ccc5c(ccc[n+]5CC)c4)cc3)ccc21.Cc1ccc(S(=O)(=O)[O-])cc1.Cc1ccc(S(=O)(=O)[O-])cc1", "Rm", 0.02],
  ["C[n+]1cccc(NC(=O)c2ccc(NC(=O)c3ccc(C(=O)Nc4ccc(-c5ccc(-c6ccc(-c7ccc[n+](C)c7)cc6)cc5)cc4)cc3)cc2)c1.Cc1ccc(S(=O)(=O)[O-])cc1.Cc1ccc(S(=O)(=O)[O-])cc1", "Rm", -0.4],
  ["C[n+]1ccc(Nc2ccc(NC(=O)c3ccc(Nc4cc[n+](C)c5cc(Cl)ccc45)cc3)cc2)cc1.[Br-].[Br-]", "Rm", 0.31],
  ["CCC[n+]1cccc2cc(NC(=O)c3ccc(C(=O)Nc4ccc5c(ccc[n+]5CCC)c4)nc3)ccc21.Cc1ccc(S(=O)(=O)[O-])cc1.Cc1ccc(S(=O)(=O)[O-])cc1", "Rm", 0.05],
  ["CCCCC[n+]1cccc(NC(=O)c2ccc(NC(=O)c3ccc(C(=O)Nc4ccc(C(=O)Nc5ccc[n+](CCCCC)c5)cc4)cc3)cc2)c1.Cc1ccc(S(=O)(=O)[O-])cc1.Cc1ccc(S(=O)(=O)[O-])cc1", "Rm", 0.9],
  ["CC[n+]1cccc2cc(NC(=O)COc3ccc(C(=O)Nc4ccc5c(ccc[n+]5CC)c4)cc3)ccc21.Cc1ccc(S(=O)(=O)[O-])cc1.Cc1ccc(S(=O)(=O)[O-])cc1", "Rm", -0.11],
  ["CCC[n+]1cccc(NC(=O)c2ccc(NC(=O)c3ccc(C(=O)Nc4ccc(C(=O)Nc5ccc[n+](CCC)c5)cc4OC)cc3)c(OC)c2)c1.Cc1ccc(S(=O)(=O)[O-])cc1.Cc1ccc(S(=O)(=O)[O-])cc1", "Rm", 0.3],
  ["CC[n+]1cccc2cc(NC(=O)c3ccc(C(=O)Nc4ccc(NC(=O)c5ccc6c(ccc[n+]6CC)c5)cc4)cc3)ccc21.Cc1ccc(S(=O)(=O)[O-])cc1.Cc1ccc(S(=O)(=O)[O-])cc1", "Rm", -0.35]
]}
